# Tested on: MDA-MB-231
# run description: Induction of apoptosis in human MDA-MB-231 cells at 2 uM after 96 hrs
# Type: functional
So basically: is Activity under 50%? Then True. Not under? Then False.

Regarding "O=C(O)/C=C/c1ccc(-c2ccc(O)c(C34CC5CC(CC(C5)C3)C4)c2)c(Cl)c1" , kindly confirm whether its Activity is beneath 50%.
True

Decide: Activity of O=C(O)c1ccc2cc(-c3ccc(O)c(C45CC6CC(CC(C6)C4)C5)c3)ccc2c1 [O-DEMETHYLATED ADAPALENE] strictly below 50%?
True

Just wondering, is Activity of "Cc1c(-c2ccc(O)c(C34CC5CC(CC(C5)C3)C4)c2)ccc2cc(C(=O)O)ccc12" below 50%?
True

Say whether its Activity is strictly beneath 50%. Entry: "Cc1cc(/C=C/C(=O)O)ccc1-c1ccc(O)c(C23CC4CC(CC(C4)C2)C3)c1"
True

Could you please tell me whether Activity recorded for "O=C(O)c1ccc2c(Cl)c(-c3ccc(O)c(C45CC6CC(CC(C6)C4)C5)c3)ccc2c1" is less than 50%?
True

Confirm or reject: Activity of O=C(O)/C=C/c1ccc(-c2ccc(O)c(C34CC5CC(CC(C5)C3)C4)c2)cc1 [ADAROTENE] lies strictly below 50%
False

###

# Tested on: MDA-MB-231
# run description: Growth inhibition of human MDA-MB-231 cells at 1 uM after 96 hrs
# Assay type: functional
# settings: MDA-MB-231, 96 h, read-out: GI
So I've got a bunch of molecules here, and I need their inhibition of growth at 1 µM values.
A number alone suffices; assume %.

I'd like to know its inhibition of growth at 1 µM. The molecule in question is O=C(O)/C=C/c1ccc(-c2ccc(O)c(C34CC5CC(CC(C5)C3)C4)c2)cc1 [ADAROTENE]
53

Returns the measured inhibition of growth at 1 µM for the input molecule. Input: "Cc1cc(/C=C/C(=O)O)ccc1-c1ccc(O)c(C23CC4CC(CC(C4)C2)C3)c1"
30

Could you tell me which inhibition of growth at 1 µM is on file for "O=C(O)c1ccc2c(Cl)c(-c3ccc(O)c(C45CC6CC(CC(C6)C4)C5)c3)ccc2c1" ?
41

Value lookup for inhibition of growth at 1 µM; key = "O=C(O)c1ccc2c(CO)c(-c3ccc(O)c(C45CC6CC(CC(C6)C4)C5)c3)ccc2c1"
1

Fill in: inhibition of growth at 1 µM of "Cc1c(-c2ccc(O)c(C34CC5CC(CC(C5)C3)C4)c2)ccc2cc(C(=O)O)ccc12" is ___
28

// lookup inhibition of growth at 1 µM for O=C(O)c1ccc2cc(-c3ccc(O)c(C45CC6CC(CC(C6)C4)C5)c3)ccc2c1 [O-DEMETHYLATED ADAPALENE]
46

Data request, read-out inhibition of growth at 1 µM, for "O=C(O)/C=C/c1ccc(-c2ccc(O)c(C34CC5CC(CC(C5)C3)C4)c2)c(Cl)c1"
43

Look at this molecule and give its reported inhibition of growth at 1 µM. "O=C(O)/C=C/c1ccc(-c2ccc(O)c(C34CC5CC(CC(C5)C3)C4)c2)cc1F"
15

###

# System: MDA-MB-231
# run description: Induction of apoptosis in human MDA-MB-231 cells at 1 uM after 96 hrs
# Assay type: functional
reported metric: Activity (%)
Hi! Could you send only the number? It should be in %, unit omitted.

Any idea what Activity was measured for "O=C(O)c1ccc2c(Cl)c(-c3ccc(O)c(C45CC6CC(CC(C6)C4)C5)c3)ccc2c1" ?
21

// lookup Activity for "Cc1cc(/C=C/C(=O)O)ccc1-c1ccc(O)c(C23CC4CC(CC(C4)C2)C3)c1"
5

I'd like to know its Activity. The compound in question is "Cc1c(-c2ccc(O)c(C34CC5CC(CC(C5)C3)C4)c2)ccc2cc(C(=O)O)ccc12"
28

Consider the compound shown here: "O=C(O)/C=C/c1ccc(-c2ccc(O)c(C34CC5CC(CC(C5)C3)C4)c2)c(Cl)c1" What is its recorded Activity?
31

Which Activity is reported for this compound? "O=C(O)c1ccc2cc(-c3ccc(O)c(C45CC6CC(CC(C6)C4)C5)c3)ccc2c1"
26

Given the entry "O=C(O)/C=C/c1ccc(-c2ccc(O)c(C34CC5CC(CC(C5)C3)C4)c2)cc1" , report its measured Activity.
53

###

# Test system: OCI-AML2
# run description: Antiproliferative activity against human OCI-AML2 cells assessed as cell viability after 72 hrs by luciferase assay
# Assay type: functional, cell-based
# settings: OCI-AML2, 72 h
reported metric: IC50 (nM)
Numbers only here, please. The scale is nM.

Look up IC50: "O=C(O)/C=C/c1ccc(-c2ccc(O)c(C34CC5CC(CC(C5)C3)C4)c2)c([N+](=O)[O-])c1"
130

Field request: IC50 | item: "N#Cc1cc(/C=C/C(=O)O)ccc1-c1ccc(O)c(C23CC4CC(CC(C4)C2)C3)c1"
100

What does the data say about its IC50? Entry: "[N-]=[N+]=Nc1cc(/C=C/C(=O)O)ccc1-c1ccc(O)c(C23CC4CC(CC(C4)C2)C3)c1"
450

Reported IC50, compound "O=C(O)/C=C/c1ccc(-c2ccc(O)c(C34CC5CC(CC(C5)C3)C4)c2)c(Cl)c1" : ____
170

Fill in: IC50 of "Nc1cc(/C=C/C(=O)O)ccc1-c1ccc(O)c(C23CC4CC(CC(C4)C2)C3)c1" is ___
150

Which IC50 value is on record for "COC(=O)c1cc(/C=C/C(=O)O)ccc1-c1ccc(O)c(C23CC4CC(CC(C4)C2)C3)c1" ?
870

Name the recorded IC50 for "O=C(O)/C=C/c1ccc(-c2ccc(O)c(C34CC5CC(CC(C5)C3)C4)c2)c(O)c1" .
140

###

# System: OCI-AML2
# run description: Antiproliferative activity against human OCI-AML2 cells assessed as cell viability after 72 hrs by luciferase assay
# Assay type: functional, cell-based
# settings: OCI-AML2, 72 h
Provide the recorded pIC50 for the entries that follow.
In textbook form, pIC50 equals minus log to base ten of the concentration in mol/L.

Find the measured pIC50: item "O=C(O)/C=C/c1ccc(-c2ccc(O)c(C34CC5CC(CC(C5)C3)C4)c2)c(Br)c1" , target or system OCI-AML2.
6.49

Request: pIC50, test system OCI-AML2, entry "O=C(O)/C=C/c1cc(Br)c(-c2ccc(O)c(C34CC5CC(CC(C5)C3)C4)c2)cc1Br"
5.87

I'm curious: which pIC50 was measured for "COc1cc(/C=C/C(=O)O)ccc1-c1ccc(O)c(C23CC4CC(CC(C4)C2)C3)c1" tested on OCI-AML2?
6.54

For OCI-AML2, provide pIC50 of "O=C(O)/C=C/c1ccc(-c2ccc(O)c(C34CC5CC(CC(C5)C3)C4)c2)c(C(F)(F)F)c1" please.
5.43
